Origin of the recorded values: patent US11254686B1

# System: CYP 450 (isoform not given)
# Assay text: CYP450 inhibition at 10 μM
# Format: in vitro ADME
# Protocol conditions: read-out: CYP 450 % INH @ 10 μM
Endpoint label: inhibition at 10 µM (%)
Numbers only, in %.

// solved cases for inhibition at 10 µM follow
[[record]]
compound = "CNc1cc2nc(N[C@@H](C)c3cncc(F)c3)nc(C(=O)N3CC[C@@H](O)C3)c2s1 [Example Z224]"
endpoint_unit = "%"
assay_result = 52.5

[[record]]
compound = "CO[C@H]1CCN(C(=O)c2nc(N[C@@H](C)c3cncc(F)c3)nc3ccsc23)C1 [Example Z252]"
endpoint_unit = "%"
assay_result = 55.9

[[record]]
compound = "Cc1cc2nc(N[C@@H](C)c3ccccn3)nc(C(=O)N3CC[C@H](O)C3)c2s1 [Example Z282]"
endpoint_unit = "%"
assay_result = -18.8

[[record]]
compound = "C[C@H](Nc1nc(C(=O)N2CC[C@H](CO)C2)c2sccc2n1)c1cncc(F)c1 [Example Z294]"
endpoint_unit = "%"
assay_result = 37.6

[[record]]
compound = "CO[C@@H]1CCN(C(=O)c2nc(N[C@@H](C)c3cncc(F)c3)nc3ccsc23)C1 [Example Z251]"
endpoint_unit = "%"
assay_result = 49.1


The record that follows has no inhibition at 10 µM shown yet.
So what's the measured inhibition at 10 µM for this one? C[C@H](Nc1nc(C(=O)N2CCCC2)c2sccc2n1)c1cncc(Cl)c1 [Example Z231]
75
